test: Test for resistance to light of the recorded images (carbon arc fade meter, Blue Scale JIS L-0841); type: physicochemical; conditions: ink jet print on ink jet paper B (coated paper STX73 A4, Sharp), 20 hours carbon arc fade meter
Reported metric: light fastness (rank) ink jet paper B

>>> reported_measurement("COc1cc(N=Nc2cc(S(=O)(=O)O)cc3cc(S(=O)(=O)O)cc(O)c23)c(NC(C)=O)cc1N=Nc1c(S(=O)(=O)O)cc2cc(S(=O)(=O)O)c(N=Nc3ccc(N)cc3O)cc2c1O [compound 0231]")
5
>>> reported_measurement("O=S(=O)(O)c1cc(O)c2c(N=Nc3ccc(N=Nc4c(S(=O)(=O)O)cc5ccc(N=Nc6ccc(O)cc6O)cc5c4O)c4cc(S(=O)(=O)O)ccc34)cc(S(=O)(=O)O)cc2c1 [compound 0025]")
4
>>> reported_measurement("COc1cc(N=Nc2cc(S(=O)(=O)O)cc3cc(S(=O)(=O)O)cc(O)c23)c(C)cc1N=Nc1c(S(=O)(=O)O)cc2ccc(N=Nc3ccc(N)cc3O)cc2c1O [compound 0002]")
5
>>> reported_measurement("COc1cc(N=Nc2cc(S(=O)(=O)O)cc3cc(S(=O)(=O)O)cc(O)c23)c(NC(C)=O)cc1N=Nc1c(S(=O)(=O)O)cc2ccc(N=Nc3ccc(O)cc3O)cc2c1O [compound 0012]")
4
>>> reported_measurement("COc1cc(N=Nc2cc(S(=O)(=O)O)cc3cc(S(=O)(=O)O)cc(O)c23)c(C)cc1N=Nc1c(S(=O)(=O)O)cc2ccc(N=Nc3ccc(NCC(=O)O)cc3NCC(=O)O)cc2c1O [compound 0007]")
4
>>> reported_measurement("COc1cc(N=Nc2cc(S(=O)(=O)O)cc3cc(S(=O)(=O)O)cc(O)c23)c(C)cc1N=Nc1c(S(=O)(=O)O)cc2ccc(N=Nc3ccc(N)cc3N)cc2c1O [compound 0001]")
5
>>> reported_measurement("COCCOc1cc(N=Nc2cc(S(=O)(=O)O)cc3cc(S(=O)(=O)O)cc(O)c23)c(NC(C)=O)cc1N=Nc1c(S(=O)(=O)O)cc2ccc(N=Nc3ccc(N)cc3O)cc2c1O [compound 0020]")
5
>>> reported_measurement("Nc1ccc2cc(S(=O)(=O)O)c(N=Nc3ccc(N=Nc4cc(C(=O)O)cc(C(=O)O)c4)c4ccccc34)c(O)c2c1 [compound 2, reference compound]")
4
>>> reported_measurement("COc1cc(N=Nc2cc(S(=O)(=O)O)cc3cc(S(=O)(=O)O)cc(O)c23)c(NC(C)=O)cc1N=Nc1c(S(=O)(=O)O)cc2ccc(N=Nc3cc(S(=O)(=O)O)c(N)cc3N)cc2c1O [compound 0014]")
5
>>> reported_measurement("COc1cc(N=Nc2cc(S(=O)(=O)O)cc3cc(S(=O)(=O)O)cc(O)c23)c(C)cc1N=Nc1c(S(=O)(=O)O)cc2ccc(N=Nc3cc(S(=O)(=O)O)c(N)cc3N)cc2c1O [compound 0005]")
5

---

test: Test for resistance to water of the recorded images (immersion in water, visual examination of dropout); assay type: physicochemical; settings: ink jet print on plain paper; immersed in water 2 minutes with mild stirring, dried
Reported metric: water fastness plain paper

>>> reported_measurement("Nc1cc(N)c(S(=O)(=O)O)cc1N=Nc1ccc2cc(S(=O)(=O)O)c(N=Nc3ccc(N=Nc4cc(S(=O)(=O)O)cc5cc(S(=O)(=O)O)cc(O)c45)c4ccc(S(=O)(=O)O)cc34)c(O)c2c1")
"x˜Δ"
>>> reported_measurement("COc1cc(N=Nc2cc(S(=O)(=O)O)cc3cc(S(=O)(=O)O)cc(O)c23)c(C)cc1N=Nc1c(S(=O)(=O)O)cc2ccc(N=Nc3ccc(N)cc3N)cc2c1O")
"Δ˜◯"
>>> reported_measurement("COc1cc(N=Nc2cc(S(=O)(=O)O)cc3cc(S(=O)(=O)O)cc(O)c23)c(NC(C)=O)cc1N=Nc1c(S(=O)(=O)O)cc2ccc(N=Nc3ccc(O)cc3O)cc2c1O")
"Δ"
>>> reported_measurement("COc1cc(N=Nc2cc(S(=O)(=O)O)cc3cc(S(=O)(=O)O)cc(O)c23)c(C)cc1N=Nc1c(S(=O)(=O)O)cc2ccc(N=Nc3ccc(O)cc3O)cc2c1O")
"Δ"
>>> reported_measurement("COCCOc1cc(N=Nc2cc(S(=O)(=O)O)cc3cc(S(=O)(=O)O)cc(O)c23)c(NC(C)=O)cc1N=Nc1c(S(=O)(=O)O)cc2ccc(N=Nc3ccc(N)cc3N)cc2c1O")
"Δ˜◯"
>>> reported_measurement("COc1cc(N=Nc2cc(S(=O)(=O)O)cc3cc(S(=O)(=O)O)cc(O)c23)c(C)cc1N=Nc1c(S(=O)(=O)O)cc2ccc(N=Nc3ccc(NCC(=O)O)cc3NCC(=O)O)cc2c1O")
"◯"
>>> reported_measurement("COc1cc(N=Nc2cc(S(=O)(=O)O)cc3cc(S(=O)(=O)O)cc(O)c23)c(NC(C)=O)cc1N=Nc1c(S(=O)(=O)O)cc2cc(S(=O)(=O)O)c(N=Nc3ccc(N)cc3O)cc2c1O")
"Δ"
>>> reported_measurement("COCCOc1cc(N=Nc2cc(S(=O)(=O)O)cc3cc(S(=O)(=O)O)cc(O)c23)c(NC(C)=O)cc1N=Nc1c(S(=O)(=O)O)cc2ccc(N=Nc3ccc(N)cc3O)cc2c1O")
"Δ˜◯"
>>> reported_measurement("COCCOc1cc(N=Nc2cc(S(=O)(=O)O)cc3cc(S(=O)(=O)O)cc(O)c23)c(NC(C)=O)cc1N=Nc1c(S(=O)(=O)O)cc2ccc(N=Nc3cc(S(=O)(=O)O)c(N)cc3N)cc2c1O")
"Δ˜◯"
>>> reported_measurement("O=S(=O)(O)c1cc(O)c2c(N=Nc3ccc(N=Nc4c(S(=O)(=O)O)cc5ccc(N=Nc6ccc(O)cc6O)cc5c4O)c4cc(S(=O)(=O)O)ccc34)cc(S(=O)(=O)O)cc2c1")
"x˜Δ"

---

assay: Test for resistance to light of the recorded images (carbon arc fade meter, Blue Scale JIS L-0841); format: physicochemical; conditions: ink jet print on plain paper (Canon TLB5A4S), 20 hours carbon arc fade meter
Reported metric: light fastness (rank) plain paper

>>> reported_measurement("Nc1ccc2cc(S(=O)(=O)O)c(N=Nc3ccc(N=Nc4cc(C(=O)O)cc(C(=O)O)c4)c4ccccc34)c(O)c2c1 [compound 2, reference compound]")
4
>>> reported_measurement("COc1cc(N=Nc2cc(S(=O)(=O)O)cc3cc(S(=O)(=O)O)cc(O)c23)c(C)cc1N=Nc1c(S(=O)(=O)O)cc2ccc(N=Nc3ccc(NCC(=O)O)cc3NCC(=O)O)cc2c1O")
4
>>> reported_measurement("COc1cc(N=Nc2cc(S(=O)(=O)O)cc3cc(S(=O)(=O)O)cc(O)c23)c(NC(C)=O)cc1N=Nc1c(S(=O)(=O)O)cc2cc(S(=O)(=O)O)c(N=Nc3cc(S(=O)(=O)O)c(N)cc3N)cc2c1O")
5
>>> reported_measurement("Nc1cc(N)c(S(=O)(=O)O)cc1N=Nc1ccc2cc(S(=O)(=O)O)c(N=Nc3ccc(N=Nc4cc(S(=O)(=O)O)cc5cc(S(=O)(=O)O)cc(O)c45)c4ccc(S(=O)(=O)O)cc34)c(O)c2c1")
5
>>> reported_measurement("COc1cc(N=Nc2cc(S(=O)(=O)O)cc3cc(S(=O)(=O)O)cc(O)c23)c(NC(C)=O)cc1N=Nc1c(S(=O)(=O)O)cc2ccc(N=Nc3cc(S(=O)(=O)O)c(N)cc3N)cc2c1O")
5

---

experiment: Test for resistance to light of the recorded images (carbon arc fade meter, Blue Scale JIS L-0841); type: physicochemical; conditions: ink jet print on ink jet paper B (coated paper STX73 A4, Sharp), 20 hours carbon arc fade meter
Reported metric: light fastness (rank) ink jet paper B

>>> reported_measurement("COc1cc(N=Nc2cc(S(=O)(=O)O)cc3cc(S(=O)(=O)O)cc(O)c23)c(NC(C)=O)cc1N=Nc1c(S(=O)(=O)O)cc2cc(S(=O)(=O)O)c(N=Nc3cc(S(=O)(=O)O)c(N)cc3N)cc2c1O [compound 0234]")
5
>>> reported_measurement("COc1cc(N=Nc2cc(S(=O)(=O)O)cc3cc(S(=O)(=O)O)cc(O)c23)c(NC(C)=O)cc1N=Nc1c(S(=O)(=O)O)cc2ccc(N=Nc3ccc(N)cc3O)cc2c1O [compound 0011]")
4
>>> reported_measurement("COc1cc(N=Nc2cc(S(=O)(=O)O)cc3cc(S(=O)(=O)O)cc(O)c23)c(NC(C)=O)cc1N=Nc1c(S(=O)(=O)O)cc2cc(S(=O)(=O)O)c(N=Nc3ccc(O)cc3O)cc2c1O [compound 0232]")
4
>>> reported_measurement("COCCOc1cc(N=Nc2cc(S(=O)(=O)O)cc3cc(S(=O)(=O)O)cc(O)c23)c(NC(C)=O)cc1N=Nc1c(S(=O)(=O)O)cc2ccc(N=Nc3cc(S(=O)(=O)O)c(N)cc3N)cc2c1O [compound 0022]")
5
>>> reported_measurement("COCCOc1cc(N=Nc2cc(S(=O)(=O)O)cc3cc(S(=O)(=O)O)cc(O)c23)c(N)cc1N=Nc1c(S(=O)(=O)O)cc2ccc(N=Nc3cc(S(=O)(=O)O)c(N)cc3N)cc2c1O [compound 0051]")
5
>>> reported_measurement("COCCOc1cc(N=Nc2cc(S(=O)(=O)O)cc3cc(S(=O)(=O)O)cc(O)c23)c(NC(C)=O)cc1N=Nc1c(S(=O)(=O)O)cc2ccc(N=Nc3ccc(N)cc3N)cc2c1O [compound 0019]")
5
>>> reported_measurement("Nc1cc(N)c(S(=O)(=O)O)cc1N=Nc1ccc2cc(S(=O)(=O)O)c(N=Nc3ccc(N=Nc4cc(S(=O)(=O)O)cc5cc(S(=O)(=O)O)cc(O)c45)c4ccc(S(=O)(=O)O)cc34)c(O)c2c1 [compound 0027]")
5
>>> reported_measurement("COc1cc(N=Nc2cc(S(=O)(=O)O)cc3cc(S(=O)(=O)O)cc(O)c23)c(N)cc1N=Nc1c(S(=O)(=O)O)cc2cc(S(=O)(=O)O)c(N=Nc3ccc(N)cc3O)cc2c1O [compound 0264]")
5
>>> reported_measurement("COc1cc(N=Nc2cc(S(=O)(=O)O)cc3cc(S(=O)(=O)O)cc(O)c23)c(N)cc1N=Nc1c(S(=O)(=O)O)cc2ccc(N=Nc3cc(S(=O)(=O)O)c(N)cc3N)cc2c1O [compound 0048]")
5
